Values were extracted from paper PMC4552634.

# Tested on: P. falciparum stage V gametocytes
# Design: BacTiter-Glo ATP luminescence viability of purified stage V gametocytes in 384-well plates, per cent inhibition versus DMSO
# RUN_CONDITIONS: 48 h, 5 µM; inhibitor
Out of some 13,000 compounds screened, about 3,200 (25%) showed an effect of 50% or more. The list shows a part of the results.
Known % Inhibition of a selection of molecules
// note: answer is a bare numeric in %

O=C(C=Cc1cccs1)N(CCCn1ccnc1)c1nc2ccc(F)cc2s1
96.26
Cc1nnc(Sc2ncnc3scc(-c4ccc(F)cc4)c23)s1
77.07
COc1ccc2ncc(F)c([C@@H](O)CN3CCC(NCc4cc5c(cn4)OCS5)CC3)c2c1
14.45
Fc1ccc(-c2csc3ncnc(Cl)c23)cc1
5.052

Which measured % Inhibition value corresponds to COc1cc(CCNCC(O)c2ccc([N+](=O)[O-])c(OCc3ccccc3)c2)cc(OC)c1OC (centres unmarked) ?
19.76

COc1ccc(NC(=O)[C@H](Cc2ccccc2)Nc2cc(C)nc(NCCOc3ccccc3)n2)cc1 , same question.
13.17

COc1ccc(NC(=O)[C@H](Cc2ccccc2)Nc2cc(C)nc(NCCc3cccnc3)n2)cc1 , same question.
72.32

CN1CCCC1CCOc1ccc2c(c1)N(C(=O)Nc1cc(Br)cc(C(F)(F)F)c1)CC2 (centres unmarked) , same question.
47.25

###

# Tested on: P. falciparum stage V gametocytes
# Parameters: BacTiter-Glo ATP luminescence viability of purified stage V gametocytes in 384-well plates, per cent inhibition versus DMSO
# RUN_CONDITIONS: 48 h, 5 µM; inhibitor
Among all 13,000 compounds or so, about 3,200 (25%) showed an effect of 50% or more. This is one part of the list.
READOUT_TYPE: % Inhibition (%)
// note: answer is a bare numeric in %

CC(C)N1CCN(C(CN2CCN(CCCOc3ccccc3-c3ccccc3)CC2)c2ccc(F)cc2)CC1 (stereo not drawn) [TCMDC-135499]
44.69
CCCC(=O)Nc1ccc(OCCCN(Cc2cccc(C(F)(F)F)c2)c2ccc(C#N)c(C(F)(F)F)c2)cc1 [TCMDC-135666]
6.029
Cc1sc(CNCCCNc2cc(=O)c3ccccc3[nH]2)c(C(F)(F)F)c1C [TCMDC-140906]
5.874
CC(C)N1CCN(C(CN2CCN(CCCOc3cccc(-c4ccccc4)c3)CC2)c2ccc(F)cc2)CC1 (stereo not drawn) [TCMDC-135498]
62.15
CC(C)N1CCN(C(CN2CCN(CCCOc3ccc(-c4ccccc4)cc3)CC2)c2ccc(F)cc2)CC1 (stereo not drawn) [TCMDC-135497]
69.79

Which measured % Inhibition value corresponds to CCC[C@@H]([C@@H](CC(C)C)C(=O)N[C@@H](CCCCNC(=O)c1ccccn1)C(=O)Nc1nccs1)N(O)C=O [TCMDC-137550] ?
43.83

Oc1ccccc1N1CCN(c2ccc(-c3nc4ccccc4[nH]3)cn2)CC1 [TCMDC-124820] , same question.
-75.14

CCc1cccc(-n2nc(OCC(=O)NC3CCCC3)c3cccnc32)c1 [TCMDC-125160] , same question.
5.355

CCCC(C(CC1CCC(C)CC1)C(=O)NC(CCCNc1ncccn1)C(=O)Nc1nccs1)N(O)C=O (stereo not drawn) [TCMDC-138160] , same question.
11.06

COc1cccc(NC(=O)Nc2ccc(-c3oc(C(=O)NCC(c4ccccc4)N(C)C)cc3-c3ccncc3)cc2)c1 (stereo not drawn) [TCMDC-135783] , same question.
-10.27

O=C(Nc1ccc(F)cc1)NC1CCN(c2ccnc3cc(Cl)ccc23)CC1 [TCMDC-133570] , same question.
-24.37

CCC[C@@H]([C@@H](CC(C)C)C(=O)N[C@@H](CCCCNC(=O)c1cccc(OC)c1)C(=O)Nc1nccs1)N(O)C=O [TCMDC-137305] , same question.
57.38
